Data origin, for the record: ChEMBL document CHEMBL1134491

# MEASUREMENT NOTES: Inhibitory concentration against binding of (R)-(-)-[3H]-baclofen to GABAB sites on rat whole brain synaptic membrane
Lab note: compare IC50 with 10 µM, writing 1.0 if less and 0.0 if equal or more.

STRUCTURE SMILES STRING	GROUP
NC[C@H](CC(=O)O)c1cccc(Cl)c1	0.0
NC[C@H](CC(=O)O)c1ccccc1Cl	1.0
Cc1ccc([C@H](CN)CC(=O)O)s1	0.0
NC[C@H](CC(=O)O)c1ccc(O)cc1	0.0
NC[C@H](CC(=O)O)c1ccc(Cl)s1	1.0
NC[C@H](CC(=O)O)c1cc(Cl)cs1	0.0
NC[C@H](CC(=O)O)c1cc(Br)cs1	0.0
NC[C@H](CC(=O)O)c1ccco1	0.0
Cc1ccc([C@H](CN)CC(=O)O)o1	0.0
NC[C@H](CC(=O)O)c1ccc(F)cc1	1.0
Cc1ccsc1[C@H](CN)CC(=O)O	0.0
NC[C@H](CC(=O)O)c1ccsc1	0.0
NC[C@H](CC(=O)O)c1ccc(Br)s1	1.0
